Test system: XF498
Assay: Anticancer activity against human XF498 cells by SRB assay
Assay type: functional, cell-based
Kindly state IC50 for each of the entries shown.
Respond with the bare value in µM.

-- ask Entry COc1ccc(C[C@H]2CO[C@H](c3ccc(OC)c(OC)c3)[C@H]2CO)cc1OC needs its IC50 filled in; supply it.
-- reply 15.4

-- ask Entry COc1cc([C@@H]2c3cc(O)c(OC)cc3C[C@H](CO)[C@H]2CO)ccc1O [(-)-ISOLARICIRESINOL] needs its IC50 filled in; supply it.
-- reply 22.8

-- ask Entry COc1cc([C@@H]2OC[C@@H]3[C@H]2CO[C@H]3c2cc(OC)c(O)c(OC)c2)cc(OC)c1O needs its IC50 filled in; supply it.
-- reply 8.82

-- ask Entry COc1ccc([C@H](O)[C@@H](CO)Oc2c(OC)cc([C@@H]3Oc4c(OC)cc(CCCO)cc4[C@H]3CO)cc2OC)cc1OC needs its IC50 filled in; supply it.
-- reply 19.3

-- ask Entry COc1cc(C[C@H]2CO[C@H](c3ccc(O)c(OC)c3)[C@H]2CO)ccc1O needs its IC50 filled in; supply it.
-- reply 11.7

-- ask Entry COc1ccc(CC(=O)O)cc1 needs its IC50 filled in; supply it.
-- reply 28.1

-- ask Entry COc1cc(C[C@H]2COC(=O)[C@@H]2Cc2ccc(O)c(OC)c2)ccc1O needs its IC50 filled in; supply it.
-- reply 23.7

-- ask Entry COc1cc([C@@H](O)[C@@H](CO)Oc2ccc(CCCO)cc2OC)ccc1O needs its IC50 filled in; supply it.
-- reply 26.6

----------
System: XF498
Experiment: Anticancer activity against human XF498 cells by SRB assay
Format: functional, cell-based
parameterMeasured: IC50 (µM)
Respond with the bare value in µM.

-- ask Entry COc1cc([C@H]2c3c(cc(OC)c(O)c3OC)C[C@@H](CO)[C@@H]2CO)cc(OC)c1O needs its IC50 filled in; supply it.
-- reply 7.14

-- ask Entry COc1cc([C@@H]2OC[C@@H]3[C@H]2CO[C@H]3c2ccc(O[C@@H]3O[C@H](CO)[C@@H](O)[C@H](O)[C@H]3O)c(OC)c2)ccc1O needs its IC50 filled in; supply it.
-- reply 25.4

-- ask Entry COc1cc([C@@H]2OC[C@H]3[C@@H]2CO[C@H]3c2ccc(O)c(OC)c2)ccc1O [(-)-PINORESINOL] needs its IC50 filled in; supply it.
-- reply 13.3

----------
Test system: A549
Test: Anticancer activity against human A549 cells by SRB assay
Format: functional, cell-based
Kindly state IC50 for each of the entries shown.
Respond with the bare value in µM.

-- ask Entry COc1cc(C[C@H]2CO[C@H](c3ccc(O)c(OC)c3)[C@H]2CO)ccc1O needs its IC50 filled in; supply it.
-- reply 24.5

-- ask Entry COc1cc(C[C@H]2COC(=O)[C@@H]2Cc2ccc(O)c(OC)c2)ccc1O needs its IC50 filled in; supply it.
-- reply 23.8

-- ask Entry COc1cc([C@@H]2c3cc(O)c(OC)cc3C[C@H](CO)[C@H]2CO)ccc1O [(-)-ISOLARICIRESINOL] needs its IC50 filled in; supply it.
-- reply 20.2

-- ask Entry COc1cc([C@@H]2c3c(cc(OC)c(O)c3OC)C[C@H](CO)[C@H]2CO)cc(OC)c1O needs its IC50 filled in; supply it.
-- reply 21.2
